Assay: IV Formulation solubility
Format: physicochemical
Settings: 10% L-ascorbic acid in MilliQ water, 37 °C, pH 2.8, aqueous with cosolvent or surfactant or cyclodextrin, thermodynamic from solid, 1N NaOH for pH adjustment, read-out: Solubility in 10% L-ascorbic acid in fresh MilliQ water(v/v), Final pH~2.8
Description: Procedure: Weighed appropriate amount of the Compound 2 to be tested and dissolved in 1 ml of the 10% ascorbic acid solution. (Vortex for a few seconds if the compound doesn't dissolve instantly). Sonicated the compound solution at 37° C. for 5 minutes using a bath sonicator to obtain a visually clear solution. […]
recordedEndpoint: solubility at 5 min (mg/mL)
State just the number; it will be interpreted in mg/mL.

Inquiry: What value of solubility at 5 min has been reported for the following molecule? Cn1c(=O)ccc2ccc(F)c(OCCNC[C@H]3CN(c4cnc5c(n4)NC(=O)CO5)C(=O)O3)c21
Reply text: 15

---

test: In vivo pharmacokinetic (PK) studies in rats; set-up: species or system Sprague-Dawley (SD) rats; conditions: male, Sprague-Dawley, rat, plasma; 100 mg/kg, PO
recordedEndpoint: Cmax (ng/mL)
Respond numerically; units are ng/mL and should not be typed.

Inquiry: Value lookup for Cmax; key = Cn1c(=O)ccc2ccc(F)c(OCCNC[C@H]3CN(c4cnc5c(n4)NC(=O)CO5)C(=O)O3)c21 [Compound 2]
Reply text: 9790

---

assay: In vivo pharmacokinetic (PK) studies in rats; parameters: species or system Sprague-Dawley (SD) rats; details: male, Sprague-Dawley, rat, plasma, iv, 150 mg/kg, IV; read-out: Vss
recordedEndpoint: Vd (L/kg)
Return type: number; implicit unit L/kg.

Inquiry: # get_value(readout='Vd', item= Cn1c(=O)ccc2ccc(F)c(OCCNC[C@H]3CN(c4cnc5c(n4)NC(=O)CO5)C(=O)O3)c21 [Compound 2] )
Reply text: 0.73

---

assay: In vivo pharmacokinetic (PK) studies in rats; parameters: species or system Sprague-Dawley (SD) rats; details: male, Sprague-Dawley, rat, plasma; 100 mg/kg, IV; read-out: CLp (converted)
recordedEndpoint: clearance (mL/min/kg)
Express the result in mL/min/kg but write the number alone.

Inquiry: Please give the measured clearance for this compound: Cn1c(=O)ccc2ccc(F)c(OCCNC[C@H]3CN(c4cnc5c(n4)NC(=O)CO5)C(=O)O3)c21 [Compound 2]
Reply text: 14.2

---

assay: In vivo pharmacokinetic (PK) studies in rats; design: species or system Sprague-Dawley (SD) rats; conditions: male, Sprague-Dawley, rat, plasma; 30 mg/kg, IV
recordedEndpoint: half-life

Inquiry: I am curious: what half-life value has been reported for Cn1c(=O)ccc2ccc(F)c(OCCNC[C@H]3CN(c4cnc5c(n4)NC(=O)CO5)C(=O)O3)c21 ?
Reply text: 2.45 h

meta.source: patent US11401277B2
